System: M14 melanoma
assay: NCI tumour cell line growth inhibition, 48 h
reported metric: TGI

molecule	target entity	obs value
Oc1ccc2c(c1)CC[N+]1=C2CCC2CCCC21 (centres undefined)	M14 melanoma	> 100 µM

I would be grateful if you could share the reported TGI for CCCC(CC)c1c(O)c(O)c(C(CC)CCC)c(C(CC)CCC)c1C(CC)CCC (centres undefined) .
> 10 µM

I would be grateful if you could share the reported TGI for CCc1ccc(-c2ccc(=O)n(-c3ccc(S(N)(=O)=O)cc3)n2)cc1 .
> 22.2 µM

I would be grateful if you could share the reported TGI for N/N=C1/C(=N/O)CCc2nonc21 .
> 100 µM

----------
Tested on: IGROV1 ovarian
assay: NCI tumour cell line growth inhibition, 48 h
Catalogue of TGI readings, one per entry.

Would you please look over these solved cases?
compound	obs value
CCCCCCCCCCCCCCCC(=O)OCC1OC(n2cnc3c(=S)nc(N)[nH]c32)C(OC(=O)CCCCCCCCCCCCCCC)C1OC(=O)CCCCCCCCCCCCCCC (stereo not drawn)	> 50 µM
Cc1ccc(NC(=S)Nc2c(C)n(C)n(-c3ccccc3)c2=O)cc1	> 100 µM

# context switch: different compound, same TGI
I would be grateful if you could share the reported TGI for O=c1[nH]cnc2c1nnn2C1OC(CO)C(O)C1O (stereo not drawn) .
> 57.7 µM

----------
Test system: OVCAR-4 ovarian
assay: NCI tumour cell line growth inhibition, 48 h
reported metric: TGI

Would you please look over these solved cases?
molecule	target entity	TGI
Cc1ccc(C(=O)O/N=C2/CCCCC2CN(C)C)cc1 (stereo unspecified)	OVCAR-4 ovarian	> 100 µM
Oc1ccc2occ3c2c1CCC3	OVCAR-4 ovarian	> 100 µM
O=C(CC1(O)C(=O)Nc2ccc(Br)cc21)c1ccc(Cl)cc1 (stereo unspecified)	OVCAR-4 ovarian	> 100 µM

I would be grateful if you could share the reported TGI for O=C(Cn1c(=O)c(-c2ccccc2)nc2ccccc21)c1cccnc1 .
> 100 µM

I would be grateful if you could share the reported TGI for COc1ccc(/C=C(\C(=C/c2ccc(OC)cc2)[N+](=O)[O-])[N+](=O)[O-])cc1 .
27.1 µM

I would be grateful if you could share the reported TGI for CN(C)CCOC(=O)c1ccc(N)cc1 .
> 100 µM

I would be grateful if you could share the reported TGI for C1#Cc2ccccc2OCCOc2ccccc2C#Cc2ccccc2OCCOc2ccccc21 .
30.6 µM

I would be grateful if you could share the reported TGI for COc1cccc2c1C1(O)C2CCCC12OCCCO2 (stereo unspecified) .
> 100 µM

----------
System: CAKI-1 renal
assay: NCI tumour cell line growth inhibition, 48 h
Catalogue of TGI readings, one per entry.
Kindly answer with a numeric value in µM, unit omitted.

compound	obs value
O=CN1N=C(c2ccc(Nc3ccnc4cc(Cl)ccc34)cc2)CC1c1ccccc1 (stereo unspecified)	32.2
Cn1cc(NC(=O)c2cc(NC(=O)Nc3cc(C(=O)Nc4cc(C(=O)NCCC(=N)N)n(C)c4)n(C)c3)cn2C)cc1C(=O)NCCC(=N)N	92.1
O=C(CN1CCCCC1)c1ccc2c(c1)Sc1ccccc1O2	37.2

# context switch: different compound, same TGI
I would be grateful if you could share the reported TGI for O=c1[nH]c2cc3cccnc3c(Cl)c2nc1C(F)(F)F .
65.4

----------
Test system: HOP-62 NSCLC
assay: NCI tumour cell line growth inhibition, 48 h
Catalogue of TGI readings, one per entry.

Would you please look over these solved cases?
compound	TGI
COc1cccc2c1C1(O)C2CCCC12OCCCO2 (stereo unspecified)	> 100 µM
ON(CCc1ccncc1)Cc1ccccc1	> 100 µM
NC1C2C(CC(=O)O)OCC=C3CN4CCC1(C(=O)C(=O)O)C4CC32 (stereo unspecified)	> 100 µM

I would be grateful if you could share the reported TGI for O=C(Nc1ncc(Cc2ccccc2)s1)c1ccc2c(c1)OCCCO2 .
> 100 µM

I would be grateful if you could share the reported TGI for CC/C=C\C/C=C\C[C@H](O)C/C=C1/C(=O)C=C[C@H]1C/C=C\CCC(=O)OC .
> 8.25 µM

I would be grateful if you could share the reported TGI for CN(C)c1ccc(C(=O)c2ccc(N(C)C)c(N)c2)cc1N .
> 100 µM
